The measured values listed here are drawn from PubChem BioAssay (NCI).

Test system: CCRF-CEM leukemia
Protocol description: NCI tumour cell line growth inhibition, 48 h
Measurement kind: TGI

In the examples that follow, each entry is paired with its recorded TGI.
Molecule | Measured value
CC(NNC(=S)N1CCCCCC1)c1cccnn1 (stereo unspecified) | 1.1 µM
COP(=O)(OC)C(C)(C)NC(=O)NC(F)(F)F | > 100 µM
COc1cc(/C=C/c2ccc(/C=C/c3cc(OC)c(OC)c(OC)c3)cc2)cc(OC)c1OC | > 100 µM

Could I get TGI for every one of these entries?
1. O=C(/C=C/c1c(O)ccc2ccccc12)c1ccccc1Cl
2. N#Cc1ccc(Oc2nc3ccccc3nc2C(=O)O)cc1
3. Cc1ncc(CO)c(C=NCCCCCCN=Cc2c(CO)cnc(C)c2[O-])c1[O-].[Cu+2]

1. 50.7 µM
2. > 100 µM
3. > 31.6 µM

---

Please go through the items and note down their TGI.
Test system: HOP-62 NSCLC
Protocol description: NCI tumour cell line growth inhibition, 48 h

In the examples that follow, each entry is paired with its recorded TGI.
Compound | Measured value
O=C(Nc1ccccc1)c1cc(S(=O)(=O)Nc2nc3ncccc3[nH]2)c(SSc2cc(Cl)c(C(=O)Nc3ccccc3)cc2S(=O)(=O)Nc2nc3ncccc3[nH]2)cc1Cl | > 100 µM
O=C1/C(=C/c2cccc([N+](=O)[O-])c2)N=C(c2ccccc2)N1c1nc2c(Cl)cc(Cl)cc2s1 | 45 µM
CCCCCCCCCCCCCCCCCCNc1ccn(C2OC(CO)C(OP(=O)(O)OCC(COP(=O)(O)OCC3OC(n4cc(F)c(NCCCCCCCCCCCCCCCCCC)nc4=O)CC3O)OC(=O)CCCCCCCCCCCCCCC)C2O)c(=O)n1 (stereo not drawn) | > 100 µM
C[N+](C)(C)CC(=O)N/N=C(/Cc1nc2ccc(Cl)cc2[nH]c1=O)C1=NS(=O)(=O)c2cc(S(N)(=O)=O)c(Cl)cc2N1 | > 100 µM
CC(=O)NC(Cc1cnc[nH]1)C(=O)N1CCCC1C(N)=O (stereo not drawn) | > 100 µM

Could I get TGI for every one of these entries?
1. c1ccc2c(c1)c(N1CCCCC1)cc1nc3c(cc(N4CCCCC4)c4ccccc43)nc12
2. CNC(=S)N/N=C(\C)c1cc(OC)ccc1O
3. COc1ccc2c(-c3ccc(OCCN(C)C)cc3)c(Oc3ccccc3)c(=O)oc2c1
4. O=C1Cc2c([nH]c3ccc([N+](=O)[O-])cc23)-c2ccccc2N1
5. CCOc1ccc(NC(=O)C(=O)C2C(=O)Nc3ccccc3S2=O)cc1 (stereo not drawn)
6. CC(C)CCC[C@@H](C)[C@H]1CCC2C3=CCn4c(=O)ccc(=O)n4C3CC[C@@]21C (stereo partly drawn)
7. Cc1ccc2nc(-n3c(/C=C/c4ccccc4O)nc4ccccc4c3=O)sc2c1
8. S=C(N/N=C/c1ccccc1)NC12CC3CC(CC(C3)C1)C2

1: > 100 µM; 2: > 100 µM; 3: 27.3 µM; 4: 18.8 µM; 5: > 100 µM; 6: 2.76 µM; 7: > 100 µM; 8: > 100 µM

Could I get TGI for every one of these entries?
1. CC1CN=C(N(C(=O)Nc2ccccc2)c2ccccc2)S1 (stereo not drawn)
2. COc1ccc2nc3c([N+](=O)[O-])ccc4c3c(c2c1)N(CCCN(C)C)C(=S)N4CCCN(C)C

1: > 100 µM; 2: 22.7 µM

---

System: OVCAR-4 ovarian
Protocol description: NCI tumour cell line growth inhibition, 48 h
Measurement kind: GI50

In the examples that follow, each entry is paired with its recorded GI50.
Compound | Tested system | GI50
COc1ccc2c(c1)CCC1C2CCC2(C)C3=CC(O)CCC3CC12 (stereo not drawn) | OVCAR-4 ovarian | 28 µM
Cc1ccc(NCCN2CCCCC2)c2c(=O)c3ccccc3sc12 | OVCAR-4 ovarian | 5.57 µM
O=C(O[C@H]1CN[C@H](C#Cc2cc3ncnc(Nc4ccc5c(cnn5Cc5ccccc5)c4)c3s2)C1)N1CCOCC1 | OVCAR-4 ovarian | 5.3 µM
O=C1c2ccccc2C(=O)c2c1ccc(C(Br)Br)c2Cl | OVCAR-4 ovarian | 1.78 µM
O=C(COc1cccc(/C=C2/Oc3ccccc3C2=O)c1)Nc1nccs1 | OVCAR-4 ovarian | 19.5 µM
O=C(Nc1ccc(Cl)cc1)Nc1ccc(Oc2nncc3ccccc23)cc1 | OVCAR-4 ovarian | 0.753 µM
Clc1ccc(N2CCN(CCCN3CCN(c4cccc(Cl)c4)CC3)CC2)cc1 | OVCAR-4 ovarian | 5.77 µM

Then there is this compound:
Return reported GI50; argument: C[C@H](O)CNc1cc(-c2[nH]c3cccnc3c2-c2ccc(F)cc2)ccn1
> 25 µM

---

Tested on: SW-620 colon
Protocol description: NCI tumour cell line growth inhibition, 48 h
Measurement kind: TGI

Compound | Measured value
CCOC(=O)C1=C(N)CCC1C (configuration not stated) | > 100 µM
NC(=O)c1c2c(n3ccccc13)C(=O)c1ccccc1C2=O | > 100 µM
CC1=C(C(=O)NNC(=O)c2ccccc2)CC(C(=O)NNC(=O)c2ccccc2)=C(C)N1 | > 100 µM
O=C(CCN1CCCCC1)Nc1ccc2sc3ccccc3c(=O)c2n1 | 33.2 µM
CC(C)CCC[C@@H](C)[C@H]1CCC2C3=CCn4c(=O)ccc(=O)n4C3CC[C@@]21C (some centres not stated) | 1.94 µM
O=C(CCc1n[nH]c(=S)o1)Nc1cc(Cl)c(Cl)cc1Cl | 31.4 µM
CC(C)OC(=O)c1ccc(CCc2cc(O)c(Br)cc2O)cc1 | 22 µM
CC1CCCP(=O)(c2ccccc2)CC1 (configuration not stated) | > 100 µM

Could I get TGI for every one of these entries?
1. CN1C(=O)/C(=C/c2c(Cl)[nH]c3ccccc23)c2ccccc21
2. NC1CCC[C@H]1O (some centres not stated)
3. CCOCc1cc(=O)c2c(O)cc3c(c2o1)CCC(C)(C)O3
4. O=C1C(=O)c2c(O)ccc(O)c2C(O)=C1Cl

1: > 100 µM; 2: > 100 µM; 3: > 100 µM; 4: > 100 µM

---

Tested on: DU-145 prostate
Protocol description: NCI tumour cell line growth inhibition, 48 h
Measurement kind: TGI

Molecule | TGI
Nc1ccc2c(c1)S(=O)(=O)c1cc(O)ccc1O2 | > 100 µM
CC1=NN(c2cccc(Cl)c2)C2(SCC(=O)N2c2nc3ccccc3s2)/C1=C\c1ccccc1 (stereo unspecified) | 45.3 µM
CCCCCc1cc2cc3c(c(O)c2c(=O)[nH]1)C1(CC3)C(O)=c2c(=O)c3c(=O)cc(OC)c(=O)c=3c(=O)c2=C1O (stereo unspecified) | 3.46 µM
N#Cc1c(-c2ccc(Cl)cc2)cc(-c2ccc(Nc3ccnc4cc(C(F)(F)F)ccc34)cc2)nc1N | > 100 µM
Clc1ccc(Nc2nn3c(CCCCCCCCc4nnc5sc(Nc6ccc(Cl)cc6)nn45)nnc3s2)cc1 | > 100 µM

Could I get TGI for every one of these entries?
1. CC(C)OC(=O)c1ccc(CCc2cc(O)c(Br)cc2O)cc1
2. COc1ccc(C(=O)N/N=C2\C(=O)c3c(C)cc(C)cc3CC2(C)C)cc1
3. COc1ccc2nccc(NCCCN3CCN(CCCNc4ccnc5ccc(OC)cc45)CC3)c2c1
4. O=C1C(=C/C=C2/SC(c3ccccc3)(c3ccccc3)c3ccccc32)C(=O)c2ccccc21

["28.6 µM", "63.8 µM", "4.86 µM", "> 100 µM"]

Could I get TGI for every one of these entries?
1. O=c1[nH]c2ccc(C(F)(F)F)cc2nc1Cc1ccccc1
2. N/C(=N/N=C/c1cc(Br)cc(Br)c1O)NO
3. O=C(COc1cccc(/C=C2/Oc3ccccc3C2=O)c1)Nc1nccs1

1: > 100 µM; 2: > 23.8 µM; 3: > 100 µM

---

Test system: NCI-H460 lung
Protocol description: NCI tumour cell line growth inhibition, 48 h
Please go through the items and note down their log10 TGI.
Form field - Quantity: TGI; Unit: µM; Scale: log10

Compound | log10 TGI
CC1=NN(c2cccc(Cl)c2)C2(SCC(=O)N2c2nc3ccccc3s2)/C1=C\c1ccccc1 (stereo not drawn) | 1.51

Could I get log10 TGI for every one of these entries?
1. CCOC(=O)c1ccc2[nH]c(O)c(C(=Nc3ccc(N(C)C(=O)CN4CCN(C)CC4)cc3)c3ccccc3)c2c1
2. NC(=O)c1c2c(n3ccccc13)C(=O)c1ccccc1C2=O
3. CN(C)c1ccc(/C=c2/c3ccccc3n3c2cc(-c2ccc(Cl)cc2)[n+]3C)cc1

1. 0.39
2. 1.92
3. -0.18

---

System: SN12C renal
Protocol description: NCI tumour cell line growth inhibition, 48 h
Please go through the items and note down their GI50.

In the examples that follow, each entry is paired with its recorded GI50.
Compound | Measurement kind | Measured value
O=C1/C(=C/c2ccc(O)c(O)c2)COc2ccc(-c3ccccc3)cc21 | GI50 | 2.47 µM
O=C(COc1cccc(/C=C2/Oc3ccccc3C2=O)c1)Nc1nccs1 | GI50 | 22.4 µM
Cc1ccc(-c2cc3c(NC(=O)C4CC4)ncnc3o2)cc1 | GI50 | > 25 µM

Then there is this compound:
Return reported GI50; argument: COc1ccc2c(c1)OCC1c3cc(O)ccc3OC21 (centres undefined)
73.3 µM
